I'd appreciate it if you could supply Neutralizing activity (%) at 100 µg/ml values for the items below.
# measurement-target: Influenza virus A/Brisbane/59/2007 (H1N1) (Influenza A virus A/Brisbane/59/2007 (H1N1))
# assay-procedure: cell-based or functional assay
Answers are plain numbers, in %.

{"binder": "Group 47 representative clone F083-308, Fab-PP-type antibody (Fab, V domains shown) VH: QVQLVQSGAEVKKPGSSVKVSCKASGGIFRSHAISWVRQAPGQGLEWMGGIIAIFGTTHYAQQFQGRVTITADESTSTVYMELSTLRSEDTAVYYCARGPNYFESYFDNWGQGTLVTVSS VL: EIVLTQSPATLSLSPGERATLSCRASQTISSYLAWYQQKPGQAPRLLIYGASNRATGIPARFSGSGSGTDFTLTINSLEPEDFAVYYCQQRSSWPPITFGQGTRLEIK", "unit-name": "%", "Neutralizing activity (%) at 100 µg/ml": 100}
{"binder": "Group 65 representative clone F083-366, Fab-PP-type antibody (Fab, V domains shown) VH: QVQLVQSGSEVKKPGSSVKVSCKASRGIFSSYAISWVRQAPGQGLEWMGAVIPMFGTLKYAENFQGRITISADKSMSAAYMELSSLRSEDTAVYYCARNYYGSGTYFNDAFDIWGQGTMVTVSS VL: QSVLTQPPSGSGAPGQRVTISCTGGNSNIGAGYDVNGYQQLPGKAPKLLIYGNNNRPSGVPDRFSGSKSGTSASLAITGLQVEDEAHYYCQSYDNGLSGSVFGGGTQLTVLG", "unit-name": "%", "Neutralizing activity (%) at 100 µg/ml": 96.1}
{"binder": "Group 37 representative clone F083-311, Fab-PP-type antibody (Fab, V domains shown) VH: QVQLVQSGSEVKKPGSSVKVSCKASGGIFRTNAISYVRQAPGQGLEWMGGITAIFGTPNYAQKFQGRVTIIADESTSTVYMELGSLTSEDTAVYYCATSGTYYVSYFDSWGQGTLVTVSS VL: DIVMTQSPGTLTLSPGERATLSCRASQSLYSSHLAWYQQKPGQPPRLLIYGASTRAPGTPDRFSGSGSGTDFTLTITALDPEDSAVYYCQQYGSSPITFGQGTRLEIK", "unit-name": "%", "Neutralizing activity (%) at 100 µg/ml": 100}

Would you be so kind as to report Neutralizing activity (%) at 100 µg/ml for each listed record?
1. Group 38 representative clone F082-338, Fab-PP-type antibody (Fab, V domains shown) VH: QVQLQESGAEVKKPGSSVKVSCKASGGPFRSHAISWVRQAAGQGLEWMGGITAVFGTANYAQKFQGRVTITADESTNIVSMELSSLRSEDTAIYYCARSLGYHTQYNGMDVWGQGTTVTVSS VL: DVVMTQSPSSVSASVGDRVTITCRASQGISSWLAWYQQKPGKAPKLLIYAASSLQSGVPSRFSGSGSGTDFTLTISSLQPEDFATYYCQQANSFPITFGQGTRLEIK
2. Group 59 representative clone F083-351, Fab-PP-type antibody (Fab, V domains shown) VH: QVQLVQSGADVKKAGSSVKVSCKASGRTFGNYAISWVRQAPGQGLEWMGGITPIFGAANYAQKFQGRVTISADLSTRMVYMDLSSLRSDDTAFYYCAGHPMYHYGSAMDYWGQGTLVTVSS VL: QSVLTQPPSASGTPGQRVSISCFGSRSNVGSSSVNWYQQLPGRAPKLLIQRNDQRPSGVPDRFSGSKSGTSASLAISGLQSDDESTYYCAAWDDSVKSVVFGGGTQLTVLG
3. Group 43 representative clone F081-007, Fab-PP-type antibody (Fab, V domains shown) VH: QVQLQQSGAEVKKPGSSVKVSCKASGGIFRKNAISWVRQAPGQGLEWMGGISAIFGTANYAQKFQGRVTITADESSNTVYMDLSRLRSEDTAIYYCASHPTYHFDKSGYRFDSWGQGTLVTVSS VL: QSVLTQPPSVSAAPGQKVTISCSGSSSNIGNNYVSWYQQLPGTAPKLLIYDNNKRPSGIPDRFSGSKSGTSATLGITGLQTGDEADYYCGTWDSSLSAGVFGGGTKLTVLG

1. 100
2. 100
3. 100
